tested on: SW1271 complex spheroids with HUVEC/MSC, growth, % test/control; assay: Anticancer human tumor SW1271 cell line growth inhibition [AhR]; settings: second compound 3.16 µM; first compound 1 µM; stronger effect = lower value;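 further: spheroids exposed to agents for 7 days before readout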
Overview of reported viability, T/C across a group of compounds:
Measured attribute: viability, T/C (%)

[
  {
    "Compound": "COc1cccc2c1C(=O)c1c(O)c3c(c(O)c1C2=O)CC(O)(C(=O)CO)CC3OC1CC(N)C(O)C(C)O1 (centres undefined) + Cc1ccccc1N=Nc1ccc(NC(=O)c2ccnn2C)c(C)c1",
    "Study target": "SW1271 complex spheroids with HUVEC/MSC, growth, % test/control",
    "Measurement": 2.56
  },
  {
    "Compound": "Nc1ccn(C2OC(CO)C(O)C2(F)F)c(=O)n1 (centres undefined) + Cc1ccccc1N=Nc1ccc(NC(=O)c2ccnn2C)c(C)c1",
    "Study target": "SW1271 complex spheroids with HUVEC/MSC, growth, % test/control",
    "Measurement": 44.2
  },
  {
    "Compound": "COc1ccc([C@@H](O)c2cc(-c3ncnc4cc(N5CCOCC5)ccc34)c(F)cc2Cl)nn1 + Cc1ccccc1N=Nc1ccc(NC(=O)c2ccnn2C)c(C)c1",
    "Study target": "SW1271 complex spheroids with HUVEC/MSC, growth, % test/control",
    "Measurement": 68.9
  },
  {
    "Compound": "COc1ccc([C@@H](O)c2cc(-c3ncnc4cc(N5CCOCC5)ccc34)c(F)cc2Cl)nn1 + CC(CO)NC(=O)c1cc(-c2ccc(Cl)cc2)nn(-c2cnn(C)c2)c1=O",
    "Study target": "SW1271 complex spheroids with HUVEC/MSC, growth, % test/control",
    "Measurement": 56.3
  },
  {
    "Compound": "COc1ccc([C@@H](O)c2cc(-c3ncnc4cc(N5CCOCC5)ccc34)c(F)cc2Cl)nn1 + Cc1cncc(-c2nc(NCCc3c[nH]c4ccccc34)c3ncn(C(C)C)c3n2)c1",
    "Study target": "SW1271 complex spheroids with HUVEC/MSC, growth, % test/control",
    "Measurement": 70.1
  },
  {
    "Compound": "CC1COCCN1c1cc(-c2ccnn2C)c2ccnc(-c3ccn[nH]3)c2n1 (centres undefined) + Cc1ccccc1N=Nc1ccc(NC(=O)c2ccnn2C)c(C)c1",
    "Study target": "SW1271 complex spheroids with HUVEC/MSC, growth, % test/control",
    "Measurement": 63
  },
  {
    "Compound": "NS(=O)(=O)OCC1CC(n2ccc3c(NC4CCc5ccccc54)ncnc32)CC1O (centres undefined) + Cc1ccccc1N=Nc1ccc(NC(=O)c2ccnn2C)c(C)c1",
    "Study target": "SW1271 complex spheroids with HUVEC/MSC, growth, % test/control",
    "Measurement": 89.7
  },
  {
    "Compound": "CC1COCCN1c1cc(C2(S(C)(=N)=O)CC2)nc(-c2ccnc3[nH]ccc23)n1 (centres undefined) + Cc1ccccc1N=Nc1ccc(NC(=O)c2ccnn2C)c(C)c1",
    "Study target": "SW1271 complex spheroids with HUVEC/MSC, growth, % test/control",
    "Measurement": 96.7
  },
  {
    "Compound": "CC1COCCN1c1cc(-c2ccnn2C)c2ccnc(-c3ccn[nH]3)c2n1 (centres undefined) + Cc1cncc(-c2nc(NCCc3c[nH]c4ccccc34)c3ncn(C(C)C)c3n2)c1",
    "Study target": "SW1271 complex spheroids with HUVEC/MSC, growth, % test/control",
    "Measurement": 46
  },
  {
    "Compound": "Nc1ccccc1NC(=O)c1ccc(CNC(=O)OCc2cccnc2)cc1 + Cc1ccccc1N=Nc1ccc(NC(=O)c2ccnn2C)c(C)c1",
    "Study target": "SW1271 complex spheroids with HUVEC/MSC, growth, % test/control",
    "Measurement": 64.3
  },
  {
    "Compound": "O=C(C=Cc1cccc(S(=O)(=O)Nc2ccccc2)c1)NO + Cc1cncc(-c2nc(NCCc3c[nH]c4ccccc34)c3ncn(C(C)C)c3n2)c1",
    "Study target": "SW1271 complex spheroids with HUVEC/MSC, growth, % test/control",
    "Measurement": 57.5
  },
  {
    "Compound": "O=C(c1cc(Cc2n[nH]c(=O)c3ccccc23)ccc1F)N1CCN(C(=O)C2CC2)CC1 + CC(CO)NC(=O)c1cc(-c2ccc(Cl)cc2)nn(-c2cnn(C)c2)c1=O",
    "Study target": "SW1271 complex spheroids with HUVEC/MSC, growth, % test/control",
    "Measurement": 92.2
  },
  {
    "Compound": "Nc1ccccc1NC(=O)c1ccc(CNC(=O)OCc2cccnc2)cc1 + Cc1cncc(-c2nc(NCCc3c[nH]c4ccccc34)c3ncn(C(C)C)c3n2)c1",
    "Study target": "SW1271 complex spheroids with HUVEC/MSC, growth, % test/control",
    "Measurement": 52.8
  },
  {
    "Compound": "CC1COCCN1c1cc(C2(S(C)(=N)=O)CC2)nc(-c2ccnc3[nH]ccc23)n1 (centres undefined) + Cc1cncc(-c2nc(NCCc3c[nH]c4ccccc34)c3ncn(C(C)C)c3n2)c1",
    "Study target": "SW1271 complex spheroids with HUVEC/MSC, growth, % test/control",
    "Measurement": 71.1
  },
  {
    "Compound": "COc1cc(Nc2ncc3c(n2)-c2ccc(Cl)cc2C(c2c(F)cccc2OC)=NC3)ccc1C(=O)O + CC(CO)NC(=O)c1cc(-c2ccc(Cl)cc2)nn(-c2cnn(C)c2)c1=O",
    "Study target": "SW1271 complex spheroids with HUVEC/MSC, growth, % test/control",
    "Measurement": 61.6
  },
  {
    "Compound": "NS(=O)(=O)OCC1CC(n2ccc3c(NC4CCc5ccccc54)ncnc32)CC1O (centres undefined) + CC(CO)NC(=O)c1cc(-c2ccc(Cl)cc2)nn(-c2cnn(C)c2)c1=O",
    "Study target": "SW1271 complex spheroids with HUVEC/MSC, growth, % test/control",
    "Measurement": 69.2
  },
  {
    "Compound": "CC(C)c1c(-c2ccccc2)nc2c(C#N)c[nH]n2c1=O + Cc1cncc(-c2nc(NCCc3c[nH]c4ccccc34)c3ncn(C(C)C)c3n2)c1",
    "Study target": "SW1271 complex spheroids with HUVEC/MSC, growth, % test/control",
    "Measurement": 91.5
  },
  {
    "Compound": "CC1COCCN1c1cc(C2(S(C)(=N)=O)CC2)nc(-c2ccnc3[nH]ccc23)n1 (centres undefined) + CC(CO)NC(=O)c1cc(-c2ccc(Cl)cc2)nn(-c2cnn(C)c2)c1=O",
    "Study target": "SW1271 complex spheroids with HUVEC/MSC, growth, % test/control",
    "Measurement": 73.3
  },
  {
    "Compound": "Nc1ncn(C2CC(O)C(CO)O2)c(=O)n1 (centres undefined) + CC(CO)NC(=O)c1cc(-c2ccc(Cl)cc2)nn(-c2cnn(C)c2)c1=O",
    "Study target": "SW1271 complex spheroids with HUVEC/MSC, growth, % test/control",
    "Measurement": 78
  },
  {
    "Compound": "COc1cc(C2c3cc4c(cc3C(OC3OC5COC(C)OC5C(O)C3O)C3COC(=O)C23)OCO4)cc(OC)c1O (centres undefined) + CC(CO)NC(=O)c1cc(-c2ccc(Cl)cc2)nn(-c2cnn(C)c2)c1=O",
    "Study target": "SW1271 complex spheroids with HUVEC/MSC, growth, % test/control",
    "Measurement": 45.2
  },
  {
    "Compound": "CC1(C)CCC(CN2CCN(c3ccc(C(=O)NS(=O)(=O)c4ccc(NCC5CCOCC5)c([N+](=O)[O-])c4)c(Oc4cnc5[nH]ccc5c4)c3)CC2)=C(c2ccc(Cl)cc2)C1 + Cc1cncc(-c2nc(NCCc3c[nH]c4ccccc34)c3ncn(C(C)C)c3n2)c1",
    "Study target": "SW1271 complex spheroids with HUVEC/MSC, growth, % test/control",
    "Measurement": 94.7
  },
  {
    "Compound": "Nc1ncn(C2CC(O)C(CO)O2)c(=O)n1 (centres undefined) + Cc1ccccc1N=Nc1ccc(NC(=O)c2ccnn2C)c(C)c1",
    "Study target": "SW1271 complex spheroids with HUVEC/MSC, growth, % test/control",
    "Measurement": 59
  },
  {
    "Compound": "COc1cccc2c1C(=O)c1c(O)c3c(c(O)c1C2=O)CC(O)(C(=O)CO)CC3OC1CC(N)C(O)C(C)O1 (centres undefined) + CC(CO)NC(=O)c1cc(-c2ccc(Cl)cc2)nn(-c2cnn(C)c2)c1=O",
    "Study target": "SW1271 complex spheroids with HUVEC/MSC, growth, % test/control",
    "Measurement": 1.66
  },
  {
    "Compound": "O=C(C=Cc1cccc(S(=O)(=O)Nc2ccccc2)c1)NO + CC(CO)NC(=O)c1cc(-c2ccc(Cl)cc2)nn(-c2cnn(C)c2)c1=O",
    "Study target": "SW1271 complex spheroids with HUVEC/MSC, growth, % test/control",
    "Measurement": 51.4
  }
]

Source listed as PubChem BioAssay AID1919017.
